TESTED TARGET: T1, 4H3907-bA
T1 chain: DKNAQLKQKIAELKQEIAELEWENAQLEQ
PROTOCOL SUMMARY: two-hybrid library CCNG1;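 also: natural log of median RNA to DNA barcode read ratio; higher means stronger binding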
TEST READOUT: interaction score
Format: numeric value only, no unit, no commentary.

// interaction score lookup, key: DENAQLEQKIAELKQKIAELKWENAQLEQ [4H1387-bA]
1.32

// interaction score lookup, key: DEIAQLEQKIAELKQENAELEWKNAQLKQ [4H344-bA]
0.155

// interaction score lookup, key: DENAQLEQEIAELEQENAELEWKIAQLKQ [4H1046-bA]
-0.392

---
// interaction score lookup, key: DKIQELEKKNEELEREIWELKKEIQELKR [4H2442-bH]
-1.28
